- Tested on: Y79 retinoblastoma cells
- measurement protocol: cells
- Assay type: cell-based
- study conditions: read-out: IC50, Melphalan single agent
metric: IC50 (µM)

[[record]]
entry_smiles = "N[C@@H](Cc1ccc(N(CCCl)CCCl)cc1)C(=O)O"
metric = "IC50"
reported_measurement = 3.25


----------
- Tested on: HSJD-RBT-2 retinoblastoma cells
- measurement protocol: Antiproliferative activity (MTS), HSJD-RBT-2
- Format: cell-based
- study conditions: Homo sapiens; read-out: IC50, Topotecan with VCN-01 (10 MOI)
metric: IC50 (nM)

[[record]]
compound = "CC[C@@]1(O)C(=O)OCc2c1cc1n(c2=O)Cc2cc3c(CN(C)C)c(O)ccc3nc2-1 [Topotecan, topotecan]"
unit_symbol = "nM"
reported_measurement = 50.7


FYI, the data here is from patent US20260335388A1.
